Test: activity coefficient (dimensionless); of the first substance listed, at infinite dilution; xn = mol fraction of the nth substance listed
Conditions: 308.15 K; 101 kPa; Liquid; Chromatography; x1 = 0
Catalogue of activity coefficient values
Lab note: record the figure alone, no unit after it.

The cases that follow already have their activity coefficient on record.
COMPOUND	activity coefficient
Cc1ccccc1 [toluene] + CCCCCC[N+]1(C)CCCCC1.O=S(=O)([N-]S(=O)(=O)C(F)(F)F)C(F)(F)F	0.864
COC(C)(C)C [2-methoxy-2-methylpropane] + CCCCCC[N+]1(C)CCCCC1.O=S(=O)([N-]S(=O)(=O)C(F)(F)F)C(F)(F)F	1.59
CCCCCO [pentan-1-ol] + CCCCC[N+]1(C)CCCCC1.O=S(=O)([N-]S(=O)(=O)C(F)(F)F)C(F)(F)F	2.5
CCCCCCCCCC [decane] + CCCCCC[N+]1(C)CCCCC1.O=S(=O)([N-]S(=O)(=O)C(F)(F)F)C(F)(F)F	23.5
CCCCCC [hexane] + CCCCCC[N+]1(C)CCCCC1.O=S(=O)([N-]S(=O)(=O)C(F)(F)F)C(F)(F)F	7.67

Query: Which activity coefficient is reported for this compound? CCC(C)(C)C [2,2-dimethylbutane] + CCCCCC[N+]1(C)CCCCC1.O=S(=O)([N-]S(=O)(=O)C(F)(F)F)C(F)(F)F
Reply: 6.67

Query: Reported activity coefficient for CC(C)CC(C)(C)C [2,2,4-trimethylpentane] + CCCCC[N+]1(C)CCCCC1.O=S(=O)([N-]S(=O)(=O)C(F)(F)F)C(F)(F)F : what is it?
Reply: 13.4

Query: For CCCCCO [pentan-1-ol] + CCCCCC[N+]1(C)CCCCC1.O=S(=O)([N-]S(=O)(=O)C(F)(F)F)C(F)(F)F , what is its reported activity coefficient?
Reply: 2.44

Query: Name the recorded activity coefficient for C#CCCCC [1-hexyne] + CCCCCC[N+]1(C)CCCCC1.O=S(=O)([N-]S(=O)(=O)C(F)(F)F)C(F)(F)F .
Reply: 1.85

Query: Item under review: CCCCCCC [heptane] + CCCCC[N+]1(C)CCCCC1.O=S(=O)([N-]S(=O)(=O)C(F)(F)F)C(F)(F)F . Reported activity coefficient?
Reply: 13.6

Query: // activity coefficient lookup, key: O [water] + CCCCC[N+]1(C)CCCCC1.O=S(=O)([N-]S(=O)(=O)C(F)(F)F)C(F)(F)F
Reply: 5.05

Query: Any idea what its activity coefficient is? The compound is CCCCCCCCCC [decane] + CCCCC[N+]1(C)CCCCC1.O=S(=O)([N-]S(=O)(=O)C(F)(F)F)C(F)(F)F
Reply: 31.9

Query: Return reported activity coefficient; argument: CCO [ethanol] + CCCCC[N+]1(C)CCCCC1.O=S(=O)([N-]S(=O)(=O)C(F)(F)F)C(F)(F)F
Reply: 1.79

Query: May I ask what activity coefficient has been recorded for C1=CCCCC1 [cyclohexene] + CCCCCC[N+]1(C)CCCCC1.O=S(=O)([N-]S(=O)(=O)C(F)(F)F)C(F)(F)F ?
Reply: 3.07

---

Assay: activity coefficient (dimensionless); of the first substance listed, at infinite dilution; xn = mol fraction of the nth substance listed
Settings: 358.15 K; 101 kPa; Liquid; Chromatography; x1 = 0
As shown below, each of these compounds has a reported activity coefficient value.
I'd appreciate a reply containing only the number, no unit.

Query: Can you share its activity coefficient? I mean this compound: CCO [ethanol] + CCCCC[N+]1(C)CCCCC1.O=S(=O)([N-]S(=O)(=O)C(F)(F)F)C(F)(F)F
Reply: 1.18

---

Test: activity coefficient (dimensionless); of the first substance listed, at infinite dilution; xn = mol fraction of the nth substance listed
Settings: 358.15 K; 101 kPa; Liquid; Chromatography; x1 = 0
Parameter activity coefficient: see the listing below.

# annotated cases, reported activity coefficient shown
COMPOUND	activity coefficient
CCCCCCCC [octane] + CCCCCC[N+]1(C)CCCCC1.O=S(=O)([N-]S(=O)(=O)C(F)(F)F)C(F)(F)F	10.9
COC(C)(C)C [2-methoxy-2-methylpropane] + CCCCCC[N+]1(C)CCCCC1.O=S(=O)([N-]S(=O)(=O)C(F)(F)F)C(F)(F)F	1.76
CCCCCCC [heptane] + CCCCC[N+]1(C)CCCCC1.O=S(=O)([N-]S(=O)(=O)C(F)(F)F)C(F)(F)F	10.4

Query: May I ask what activity coefficient has been recorded for CCCCCO [pentan-1-ol] + CCCCCC[N+]1(C)CCCCC1.O=S(=O)([N-]S(=O)(=O)C(F)(F)F)C(F)(F)F ?
Reply: 1.71

---

Reported values of activity coefficient for individual entries
Assay: activity coefficient (dimensionless); of the first substance listed, at infinite dilution; xn = mol fraction of the nth substance listed
Conditions: 308.15 K; 101 kPa; Liquid; Chromatography; x1 = 0

Look over these answered cases.
MOLECULE	activity coefficient
CCCCCCCCC [nonane] + CCCCC[N+]1(C)CCCCC1.O=S(=O)([N-]S(=O)(=O)C(F)(F)F)C(F)(F)F	24.2
C#CCCCCC [1-heptyne] + CCCCC[N+]1(C)CCCCC1.O=S(=O)([N-]S(=O)(=O)C(F)(F)F)C(F)(F)F	2.78
C=CCCCCC [1-heptene] + CCCCCC[N+]1(C)CCCCC1.O=S(=O)([N-]S(=O)(=O)C(F)(F)F)C(F)(F)F	5.89
CO [methanol] + CCCCC[N+]1(C)CCCCC1.O=S(=O)([N-]S(=O)(=O)C(F)(F)F)C(F)(F)F	1.45
C#CCCCC [1-hexyne] + CCCCC[N+]1(C)CCCCC1.O=S(=O)([N-]S(=O)(=O)C(F)(F)F)C(F)(F)F	2.09
CCCO [propan-1-ol] + CCCCCC[N+]1(C)CCCCC1.O=S(=O)([N-]S(=O)(=O)C(F)(F)F)C(F)(F)F	2.05

Read the next record carefully.
Query: Dear colleague, I am looking for the recorded activity coefficient of the following molecule: CC(C)=O [acetone] + CCCCC[N+]1(C)CCCCC1.O=S(=O)([N-]S(=O)(=O)C(F)(F)F)C(F)(F)F
Reply: 0.398

---

Test: activity coefficient (dimensionless); of the first substance listed, at infinite dilution; xn = mol fraction of the nth substance listed
Conditions: 308.15 K; 101 kPa; Liquid; Chromatography; x1 = 0
Reported activity coefficient is given for each of the following compounds.

Past entries and their recorded results:
COMPOUND	activity coefficient
C1CCCCCCC1 [cyclooctane] + CCCCCC[N+]1(C)CCCCC1.O=S(=O)([N-]S(=O)(=O)C(F)(F)F)C(F)(F)F	7.57
CC1CCCCC1 [methylcyclohexane] + CCCCCC[N+]1(C)CCCCC1.O=S(=O)([N-]S(=O)(=O)C(F)(F)F)C(F)(F)F	6.24
O [water] + CCCCCC[N+]1(C)CCCCC1.O=S(=O)([N-]S(=O)(=O)C(F)(F)F)C(F)(F)F	5.31

Query: Requested read-out: activity coefficient. Entry: Cc1cccc(C)c1 [1,3-dimethylbenzene] + CCCCCC[N+]1(C)CCCCC1.O=S(=O)([N-]S(=O)(=O)C(F)(F)F)C(F)(F)F
Reply: 1.14

Query: Please give the measured activity coefficient for this compound: C1CCOC1 [tetrahydrofuran] + CCCCCC[N+]1(C)CCCCC1.O=S(=O)([N-]S(=O)(=O)C(F)(F)F)C(F)(F)F
Reply: 0.563

Query: Need activity coefficient, item Cc1cccc(C)c1 [1,3-dimethylbenzene] + CCCCC[N+]1(C)CCCCC1.O=S(=O)([N-]S(=O)(=O)C(F)(F)F)C(F)(F)F
Reply: 1.15

Query: Item under review: CO [methanol] + CCCCCC[N+]1(C)CCCCC1.O=S(=O)([N-]S(=O)(=O)C(F)(F)F)C(F)(F)F . Reported activity coefficient?
Reply: 1.51

Query: Item Cc1ccc(C)cc1 [1,4-dimethylbenzene] + CCCCC[N+]1(C)CCCCC1.O=S(=O)([N-]S(=O)(=O)C(F)(F)F)C(F)(F)F has what recorded activity coefficient?
Reply: 1.16

Query: Fill in: activity coefficient of C1CCCC1 [cyclopentane] + CCCCC[N+]1(C)CCCCC1.O=S(=O)([N-]S(=O)(=O)C(F)(F)F)C(F)(F)F is ___
Reply: 4.72

Query: Which measured activity coefficient value corresponds to C1CCCCC1 [cyclohexane] + CCCCCC[N+]1(C)CCCCC1.O=S(=O)([N-]S(=O)(=O)C(F)(F)F)C(F)(F)F ?
Reply: 4.99

---

Measured activity coefficient values are reported for all entries that follow.
Experiment: activity coefficient (dimensionless); of the first substance listed, at infinite dilution; xn = mol fraction of the nth substance listed
Conditions: 338.15 K; 101 kPa; Liquid; Chromatography; x1 = 0

These recorded examples may help you get a feel for the data.
MOLECULE	OBSERVATION TYPE	MEAS VALUE
CCCC(C)=O [pentan-2-one] + CCCCC[N+]1(C)CCCCC1.O=S(=O)([N-]S(=O)(=O)C(F)(F)F)C(F)(F)F	activity coefficient	0.643
C1CCOC1 [tetrahydrofuran] + CCCCC[N+]1(C)CCCCC1.O=S(=O)([N-]S(=O)(=O)C(F)(F)F)C(F)(F)F	activity coefficient	0.653
CCc1ccccc1 [ethylbenzene] + CCCCCC[N+]1(C)CCCCC1.O=S(=O)([N-]S(=O)(=O)C(F)(F)F)C(F)(F)F	activity coefficient	0.934
CCCCCCC [heptane] + CCCCC[N+]1(C)CCCCC1.O=S(=O)([N-]S(=O)(=O)C(F)(F)F)C(F)(F)F	activity coefficient	11.3
CCCO [propan-1-ol] + CCCCCC[N+]1(C)CCCCC1.O=S(=O)([N-]S(=O)(=O)C(F)(F)F)C(F)(F)F	activity coefficient	1.53
CCCCC(C)=O [2-hexanone] + CCCCCC[N+]1(C)CCCCC1.O=S(=O)([N-]S(=O)(=O)C(F)(F)F)C(F)(F)F	activity coefficient	0.74

Query: Item under review: C#CCCCC [1-hexyne] + CCCCC[N+]1(C)CCCCC1.O=S(=O)([N-]S(=O)(=O)C(F)(F)F)C(F)(F)F . Reported activity coefficient?
Reply: 2.18
